- target-or-test-system: Glycogen synthase kinase-3 beta (Homo sapiens, UniProt P49841)
- Sequence (P49841 whole entry): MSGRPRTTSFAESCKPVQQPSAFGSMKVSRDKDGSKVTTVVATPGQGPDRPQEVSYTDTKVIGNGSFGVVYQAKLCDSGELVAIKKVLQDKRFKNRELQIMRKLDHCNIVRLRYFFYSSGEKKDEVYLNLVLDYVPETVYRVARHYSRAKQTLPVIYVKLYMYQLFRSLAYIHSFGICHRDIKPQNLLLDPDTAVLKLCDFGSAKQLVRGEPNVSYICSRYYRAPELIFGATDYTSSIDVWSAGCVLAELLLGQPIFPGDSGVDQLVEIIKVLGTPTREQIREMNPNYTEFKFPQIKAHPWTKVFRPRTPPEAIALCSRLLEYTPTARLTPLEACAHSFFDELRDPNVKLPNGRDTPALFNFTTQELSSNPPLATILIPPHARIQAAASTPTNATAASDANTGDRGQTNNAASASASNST
Label key: Condition met means IC50 under 1000 nM; Condition not met means IC50 of 1000 nM or more.

INSERT INTO measurements (sample_smiles, target_or_test_system, class_assignment) VALUES
  ('Cn1c(SCc2cn(-c3ccccc3F)nn2)nc(-c2ccccc2)cc1=O', 'Glycogen synthase kinase-3 beta (Homo sapiens, UniProt P49841)', 'Condition met'),
  ('CCc1ccc(-n2cc(CSc3nc(-c4ccccc4)cc(=O)n3C)nn2)cc1', 'Glycogen synthase kinase-3 beta (Homo sapiens, UniProt P49841)', 'Condition met'),
  ('Cn1c(SCc2cn(-c3ccc(C(C)(C)C)cc3)nn2)nc(-c2ccccc2)cc1=O', 'Glycogen synthase kinase-3 beta (Homo sapiens, UniProt P49841)', 'Condition not met'),
  ('Cn1c(SCc2cn(-c3cccc(Cl)c3)nn2)nc(-c2ccccc2)cc1=O', 'Glycogen synthase kinase-3 beta (Homo sapiens, UniProt P49841)', 'Condition met'),
  ('Cc1ccccc1-n1cc(CSc2nc(-c3ccccc3)cc(=O)n2C)nn1', 'Glycogen synthase kinase-3 beta (Homo sapiens, UniProt P49841)', 'Condition met'),
  ('Cn1c(SCc2cn(-c3cccnc3)nn2)nc(-c2ccccc2)cc1=O', 'Glycogen synthase kinase-3 beta (Homo sapiens, UniProt P49841)', 'Condition not met');
